ASSAY_SUMMARY: Pharmacokinetic study in rats after single oral dose
PROTOCOL_CONDITIONS: male, Sprague-Dawley, rat, in vivo, 50 mg/kg, intragastric gavage, single dose 50 mg Coenzyme Q10/Kg, suspended in 1% carboxymethyl cellulose, plasma, 0-24 hours
READOUT_TYPE: AUC(0-t) (ng·h/mL)
Output spec: scalar in ng·h/mL, unitless text.

Record COC1=C(OC)C(=O)C(C/C=C(\C)CC/C=C(\C)CC/C=C(\C)CC/C=C(\C)CC/C=C(\C)CC/C=C(\C)CC/C=C(\C)CC/C=C(\C)CC/C=C(\C)CCC=C(C)C)=C(C)C1=O . Reported AUC(0-t): 4100

====

ASSAY_SUMMARY: Pharmacokinetic study in rats after single oral dose
PROTOCOL_CONDITIONS: male, Sprague-Dawley, rat, in vivo, 50 mg/kg, intragastric gavage, single dose 50 mg Coenzyme Q10/Kg, suspended in 1% carboxymethyl cellulose, plasma
READOUT_TYPE: Cmax (ng/mL)
Output spec: scalar in ng/mL, unitless text.

Record COC1=C(OC)C(=O)C(C/C=C(\C)CC/C=C(\C)CC/C=C(\C)CC/C=C(\C)CC/C=C(\C)CC/C=C(\C)CC/C=C(\C)CC/C=C(\C)CC/C=C(\C)CCC=C(C)C)=C(C)C1=O . Reported Cmax: 230

Origin of measurements: patent US10905657B2
